# measured-on: T1, human serum albumin (human, UniProt P02768 25-609)
# T1 construct: also called HSA
# protocol-description: SPR (Biacore), HSA amine-coupled on CM5, pH 5
parameter: koff (s⁻¹)
Express the result in s⁻¹ but write the number alone.

**Q:** koff for 4A2 (VHH, Tested as periplasmic extract) VHH: EVQLVESGGGLVQAGGSLRLSCAASGLSFSSYAMGWFRQAPGKEREFVAAIRRREGNSYYADSVKGRFTISRDSAKNTVYLQMNSLKPEDTALYSCAATAPHYSGSFAYAGGYDYWGQGTQVTVSS ?
**A:** 0.0227

**Q:** So what's the measured koff for this one? 4D10 (VHH, Tested as periplasmic extract) VHH: EVQLVESGGGLVQAGDSLRLSCTASERPFMSYVMGWFRRAPGKDREFVGAITWSGINTWYSDSVLGRFTISRDNAKNTVYLQMNSLKPEDTAVYYCAVADGVGLYRYERQYDYWGQGTQVTVSS
**A:** 0.00341

**Q:** Which koff reading was recorded for the binder 4D4 (VHH, Tested as periplasmic extract) VHH: EVQLVESGGGLVQAGDSLRLSCAASGRTFSPYVMGWFRRAPGKEREFVGGINWSGSNTWYTDSVKGRFTISRDNVKNMVYLQMNSLKPEDTAVYYCAAGSGVGMYRYERQYDYWGQGTQVTVSS ?
**A:** 0.0166

**Q:** koff for 4C9 (VHH, Tested as periplasmic extract) VHH: EVQLVESGGGLVQAGDSLRLSCTASERPFSTYVMGWFRRAPGKEREFVGGITWSGINAWYTDSVLGRFTISSDNAKNTVYLQMNSLKPEDTAVYYCAAASGVGRYRYELQYDYWGQGTQVTVSS ?
**A:** 0.00171
